test system: SUDHL10; assay: Induction of cytotoxicity (CellTiter-Glo, 5 h), SUDHL10; settings: read-out: Cytotox SUDHL10 [M] (median); SUDHL10 cells, cytotoxicity induction, CellTiter-Glo, 5 h incubation, median
Reported IC50 values for a set of molecules

[
  {
    "MOLECULE": "CN1CCCn2c(C(=O)O)c(CCCOc3cccc4ccccc34)c3cccc(c32)-c2c(COc3ccc(C4CCOCC4)cc3)nn(C)c2C1 (single isomer, unassigned) [Example 1-59]",
    "VALUE PREFIX": "=",
    "IC50 [M]": "2.01e-05"
  },
  {
    "MOLECULE": "COCCn1nc(C2CC2)c2c1COCCCCn1c(C(=O)O)c(CCCOc3cccc4ccccc34)c3cccc-2c31 (single isomer, unassigned; enantiomer 1) [Example 103]",
    "VALUE PREFIX": "=",
    "IC50 [M]": "8.83e-06"
  },
  {
    "MOLECULE": "Cc1nn(C)c2c1-c1cccc3c(CCCOc4cccc5cc(Cl)ccc45)c(C(=O)O)n(c13)CCCCOC2 (single isomer, unassigned; enantiomer 1) [Example 041]",
    "VALUE PREFIX": "=",
    "IC50 [M]": "1.46e-05"
  },
  {
    "MOLECULE": "Cc1c2c(nn1C)CCCCCCn1c(C(=O)O)c(CCCOc3cccc4ccccc34)c3cccc-2c31 (single isomer, unassigned; enantiomer 2) [Example 192]",
    "VALUE PREFIX": ">",
    "IC50 [M]": "3.3e-05"
  },
  {
    "MOLECULE": "Cn1nc(COc2ccc(C3=CCOCC3)cc2)c2c1COCCCCn1c(C(=O)O)c(CCCOc3cccc4ccccc34)c3cccc-2c31 (single isomer, unassigned) [Example 1-63]",
    "VALUE PREFIX": "=",
    "IC50 [M]": "7.04e-06"
  },
  {
    "MOLECULE": "COCc1nn(C)c2c1-c1cccc3c(CCCOc4cccc5ccccc45)c(C(=O)O)n(c13)CCCCOC2 (single isomer, unassigned; enantiomer 1) [Example 159]",
    "VALUE PREFIX": ">",
    "IC50 [M]": "3.3e-05"
  },
  {
    "MOLECULE": "Cc1c2c(nn1C)COCCCCn1c(C(=O)O)c(CCCOc3cccc4ccccc34)c3cccc-2c31 (single isomer, unassigned; enantiomer 1) [Example 1-37]",
    "VALUE PREFIX": "=",
    "IC50 [M]": "8.41e-06"
  },
  {
    "MOLECULE": "Cn1nc(COc2ccc(N3CCN(S(=O)(=O)C4CC4)CC3)cc2)c2c1COCCCCn1c(C(=O)O)c(CCCOc3cccc4ccccc34)c3cccc-2c31 (single isomer, unassigned; enantiomer 2) [Example 1-13]",
    "VALUE PREFIX": "=",
    "IC50 [M]": "4.36e-07"
  }
]
